Residual activity values by entry
- Test system: HPPD polypeptides (wild-type SEQ ID NO:1 and mutants)
- assay conditions: kapp in presence of 50 μM Cmpd. 1, normalised to kapp without inhibitor; low substrate concentration
- Experimental: For the generation of crude HPPD polypeptide extract in micro titer plates (MTP) for the determination of residual activity in inhibition assays, cells were grown in 40 or 150 μl LB medium containing 1% Glucose (Merck, Darmstadt, Germany) and 100 μg/ml ampicillin in a standard 96 well plate (Thermo Fisher Scientific, Waltham, USA) incubated for about 18 h in a humidity incubator at 37° C. […]
Write it as a number; the unit % goes unstated.

molecule	endpoint unit	Residual activity
67 (protein, mutant HPPD polypeptide) MADLYENPMGLMGFEFIEFASPTPGTLEPIFEIMGFTKVATHRSKNVHLYRQGEINLILNNEPNSIASYFAAEHGPSVCGMAFRVKDSQKAYNRALELGAQPIHIDTGPMELNLPAIKGIGGAPLYLIDRFGEGSSIYDIDFVYLEGVERNPVGAGLKVIDHLTHNVYRGRMVYWANFYEKLFNFREARYFDIKGEYTGLTSKAMSAPDGMIRIPLNEESSKGAGQIEEFLMQFNGEGIQHVAFLTDDLVKTWDALKKIGMRFKTAPGDEYYEMLEGRLPDHGEPVDQLQARGILLDGSSVEGDKRLLLQIFSETLMGPVFFEFIQRKGDDGFGPDSFKVLFESVERDQVRRGVLTAD	%	73
86 (protein, mutant HPPD polypeptide) MADLYENPMGLMGFEFIEFASPTPGTLEPIFEIMGFTKVATHRSKNVHLYRQGEINLILNNEPNSIASYFAAEHGPSVCGMAFRVKDSQKAYNRALELGAQPIHIDTGPMELNLPAIKGIGGAPLYLIDRFGEGSSIYDIDFVYLEGVERNPVGAGLKVIDHLTHNVYRGRMVYWANFYEKLFNFREARYFDIKGEYTGLTSKAMSAPDGMIRIPLNEESSKGAGQIEEFLMQFNGEGIQHVAFLTDDLVKTWDALKKIGMRFMTAPGDEYYEMLEGRLPDHGEPVDQLQARGILLDGSSVEGDKRLLLQIFSETLMGPVFFEFIQRKGDDGFGPDSFKQLFESVERDQVRRGVLTAD	%	23
92 (protein, mutant HPPD polypeptide) MADLYENPMGLMGFEFIEFASPTPGTLEPIFEIMGFTKVATHRSKNVHLYRQGEINLILNNEPNSIASYFAAEHGPSVCGMAFRVKDSQKAYNRALELGAQPIHIDTGPMELNLPAIKGIGGAPLYLIDRFGEGSSIYDIDFVYLEGVERNPVGAGLKVIDHLTHNVYRGRMVYWANFYEKLFNFREARYFDIKGEYTGLTSKAMSAPDGMIRIPLNEESSKGAGQIEEFLMQFNGEGIQHVAFLTDDLVKTWDALKKIGMRFRTAPGDEYYEMLEGRLPDHGEPVDQLQARGILLDGSSVEGDKRLLLQIFSETLMGPVFFEFIQRKGHDGFGPDSFKVLFESAERDQVRRGVLTAD	%	61
87 (protein, mutant HPPD polypeptide) MADLYENPMGLMGFEFIEFASPTPGTLEPIFEIMGFTKVATHRSKNVHLYRQGEINLILNNEPNSIASYFAAEHGPSVCGMAFRVKDSQKAYNRALELGAQPIHIDTGPMELNLPAIKGIGGAPLYLIDRFGEGSSIYDIDFVYLEGVERNPVGAGLKVIDHLTHNVYRGRMVYWANFYEKLFNFREARYFDIKGEYTGLTSKAMSAPDGMIRIPLNEESSKGAGQIEEFLMQFNGEGIQHVAFLTDDLVKTWDALKKIGMRFMTAPGDEYYEMLEGRLPDHGEPVDQLQARGILLDGSSVEGDKRLLLQIFSETLMGPVFFEFIQRKGDDGFGPDSFKVLFESAERDQVRRGVLTAD	%	17
60 (protein, mutant HPPD polypeptide) MADLYENPMGLMGFEFIEFASPTPGTLEPIFEIMGFTKVATHRSKNVHLYRQGEINLILNNEPNSIASYFAAEHGPSVCGMAFRVKDSQKAYNRALELGAQPIHIDTGPMELNLPAIKGIGGAPLYLIDRFGEGSSIYDIDFVYLEGVERNPVGAGLKVIDHLTHNVYRGRMVYWANFYEKLFNFREARYFDIKGEYTGLTSKAMSAPDGMIRIPLNEESSKGAGQIEEFLMQFNGEGIQHVAFLTDDLVKTWDALKKIGMRFRTAPGDEYYEMLEGRLPDHGEPVDQLQARGILLDGSSVEGDKRLLLQIFSETLMGPVFFEFIQRKGHDGFGPDSFKVLFEQVERDQVRRGVLTAD	%	64
73 (protein, mutant HPPD polypeptide) MADLYENPMGLMGFEFIEFASPTPGTLEPIFEIMGFTKVATHRSKNVHLYRQGEINLILNNEPNSIASYFAAEHGPSVCGMAFRVKDSQKAYNRALELGAQPIHIDTGPMELNLPAIKGIGGAPLYLIDRFGEGSSIYDIDFVYLEGVERNPVGAGLKVIDHLTHNVYRGRMVYWANFYEKLFNFREARYFDIKGEYTGLTSKAMSAPDGMIRIPLNEESSKGAGQIEEFLMQFNGEGIQHVAFLTDDLVKTWDALKKIGMRFMTAPSDEYYEMLEGRLPDHGEPVDQLQARGILLDGSSVEGDKRLLLQIFSETLMGPVFFEFIQRKGDDGFGPDSFKVLFESVERDQVRRGVLTAD	%	29

Exam item: Entry under review: 56 (protein, mutant HPPD polypeptide) MADLYENPMGLMGFEFIEFASPTPGTLEPIFEIMGFTKVATHRSKNVHLYRQGEINLILNNEPNSIASYFAAEHGPSVCGMAFRVKDSQKAYNRALELGAQPIHIDTGPMELNLPAIKGIGGAPLYLIDRFGEGSSIYDIDFVYLEGVERNPVGAGLKVIDHLTHNVYRGRMVYWANFYEKLFNFREARYFDIKGEYTGLTSKAMSAPDGMIRIPLNEESSKGAGQIEEFLMQFNGEGIQHVAFLTDDLVKTWDALKKIGMRFMTAPGDEYYEMLEGRLPDHGEPVDQLQARGILLDGSSVEGDKRLLLQIFSETLMGPVFFEFIQRKGDDGFGPDSFRVLFESVERDQVRRGVLTAD . Reported Residual activity?
Marked response: 27
